Measured Ratio Ki, listed per entry for reference.
# ASSAY OVERVIEW: Selectivity for trypsin over thrombin

COMPOUND: CCOC(=O)CCC(=O)N(Cc1ccccc1)c1ccc2c(c1)OC(Cc1ccc(C(=N)N)cc1)C(=O)N2C (stereo not drawn)
Ratio Ki: 535
--
COMPOUND: CN1C(=O)C(Cc2ccc(C(=N)N)cc2)Oc2cc(N(Cc3ccccc3)C(=O)C(=O)O)ccc21 (stereo not drawn)
Ratio Ki: 910
--
COMPOUND: CN1C(=O)C(Cc2ccc(C(=N)N)cc2)Oc2cc(N(Cc3ccccc3)C(=O)CCC(=O)O)ccc21 (stereo not drawn)
Ratio Ki: 1130
--
COMPOUND: COC(=O)C(Cc1ccccc1)C(=O)Nc1ccc2c(c1)OC(Cc1ccc(C(=N)N)cc1)C(=O)N2C (stereo not drawn)
Ratio Ki: 4.1
--
COMPOUND: COC(=O)CC(=O)N(Cc1ccccc1)c1ccc2c(c1)OC(Cc1ccc(C(=N)N)cc1)C(=O)N2C (stereo not drawn)
Ratio Ki: 1130
--
COMPOUND: CN1C(=O)C(Cc2ccc(C(=N)N)cc2)Oc2cc(NC(=O)C(Cc3ccccc3)C(=O)O)ccc21 (stereo not drawn)
Ratio Ki: 1.7
--
COMPOUND: CN1C(=O)C(Cc2ccc(C(=N)N)cc2)Oc2cc(N(Cc3ccccc3)C(=O)CC(=O)O)ccc21 (stereo not drawn)
Ratio Ki: 112000
--
COMPOUND: CCOC(=O)C(=O)N(Cc1ccccc1)c1ccc2c(c1)OC(Cc1ccc(C(=N)N)cc1)C(=O)N2C (stereo not drawn)
Ratio Ki: 1190
